# tested target: recombinant human 17β-HSD1 (Homo sapiens, UniProt P14061)
# Construct: made in house; host or cells: Sf9 insect cells (baculovirus, Bac to Bac Expression System)
# Sequence (P14061 whole entry): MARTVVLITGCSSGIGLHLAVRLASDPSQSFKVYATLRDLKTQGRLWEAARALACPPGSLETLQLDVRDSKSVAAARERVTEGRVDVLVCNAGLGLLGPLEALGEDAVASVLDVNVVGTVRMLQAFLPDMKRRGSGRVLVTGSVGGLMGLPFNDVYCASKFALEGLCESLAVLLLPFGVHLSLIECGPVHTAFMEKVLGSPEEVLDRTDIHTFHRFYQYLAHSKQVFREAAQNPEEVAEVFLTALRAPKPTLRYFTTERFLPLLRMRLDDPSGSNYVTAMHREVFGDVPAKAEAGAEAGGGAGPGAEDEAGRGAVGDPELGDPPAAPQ
# measurement description: Inhibition of recombinant human 17β-HSD1 (HPLC assay, conversion of 3H-estrone to estradiol)
# Type: biochemical
# assay setup: 0.5 h; 1 µM inhibitor; 30 nM 3H-estrone, 1 mM NADPH, 30 min at RT; read-out: inhibition of rec. 17β-HSD1
# Protocol: Inhibition of the 17β-hydroxysteroid dehydrogenase type 1 enzyme 17β-HSD1 purification: Recombinant baculovirus was generated by the "Bac to Bac Expression System" (Invitrogen). Recombinant bacmid was transfected to Sf9 insect cells using "Cellfectin Reagent" (Invitrogen). […] The values "% inhibition" were determined for exemplified compounds, and the results are summarized in table 4 (for 17β-HSD1). table 4: HSD 1 inhibition values in % of selected compounds of formula I
Reported inhibition at 1 µM values follow for various compounds

{"compound": "C[C@]12CC[C@@H]3c4ccc(O)cc4CC[C@H]3[C@@H]1[C@H](CCCc1cn(-c3ccc(F)cc3F)nn1)CC2(F)F [Compound 302]", "inhibition at 1 µM (%)": 96}
{"compound": "C[C@]12CC[C@@H]3c4ccc(O)cc4CC[C@H]3[C@@H]1[C@H](CCCn1cc(CCc3ccccc3)nn1)CC2=O [Compound 8]", "inhibition at 1 µM (%)": 93}
{"compound": "C[C@]12CC[C@@H]3c4ccc(O)cc4CC[C@H]3[C@@H]1[C@H](CCCn1cc(-c3ccc(OC(F)(F)F)cc3)nn1)CC2=O [Compound 32]", "inhibition at 1 µM (%)": 81}
{"compound": "C[C@]12CC[C@@H]3c4ccc(O)cc4CC[C@H]3[C@@H]1[C@H](CCn1cc(-c3ccc(C(F)(F)F)cc3)nn1)CC2=O [Compound 10]", "inhibition at 1 µM (%)": 93}
{"compound": "C[C@]12CC[C@@H]3c4ccc(O)cc4CC[C@H]3[C@@H]1[C@H](CCn1cc(-c3ccc(F)cc3F)nn1)CC2=O [Compound 3]", "inhibition at 1 µM (%)": 96}
{"compound": "C[C@]12CC[C@@H]3c4ccc(O)cc4CC[C@H]3[C@@H]1[C@H](CCn1cc(CC3CCCCC3)nn1)CC2=O [Compound 6]", "inhibition at 1 µM (%)": 94}
{"compound": "CC(C)CCc1cn(CCC[C@@H]2CC(=O)[C@@]3(C)CC[C@@H]4c5ccc(O)cc5CC[C@H]4[C@H]23)nn1 [Compound 17]", "inhibition at 1 µM (%)": 88}
{"compound": "C[C@]12CC[C@@H]3c4ccc(O)cc4CC[C@H]3[C@@H]1[C@H](CCCn1cc(-c3ccc(F)cc3F)nn1)CC2=O [Compound 28]", "inhibition at 1 µM (%)": 83}
{"compound": "CC(C)CCc1cn(CC[C@@H]2CC(=O)[C@@]3(C)CC[C@@H]4c5ccc(O)cc5CC[C@H]4[C@H]23)nn1 [Compound 4]", "inhibition at 1 µM (%)": 96}
